Origin of measurements: patent US20260274814A1

- Tested on: mice
- procedure-text: Neuropharmacological Assay (SmartCube): automated behavioral signature of compound-treated mice compared with a database of reference drug classes
- Format: in vivo
- condition: probability that activity matches this class of agents, 3.0 mg/kg i.p., 15 min before test
Where a name gives a salt, the structure may show the parent alone.
assay-readout: AX

Worked set:
INSERT INTO measurements (compound, assay_readout, result) VALUES
  ('CNC1CCc2cc(C)sc2C1 (single isomer, unassigned) [Compound 29, hydrochloride]', 'AX', '++ (≥24%)'),
  ('CNC1CCc2cc(F)sc2C1 (racemic) [Compound 79, hydrochloride]', 'AX', '++ (≥24%)'),
  ('c1scc2c1CCC(NC1COC1)C2 (single isomer, unassigned)', 'AX', 'ND (^ <4%)'),
  ('CNC1CCc2cc(C#N)sc2C1 (single isomer, unassigned) [Compound 37, hydrochloride]', 'AX', 'ND (^ <4%)'),
  ('Cl.FC1(F)CC(NC2CCc3cscc3C2)C1 (single isomer, unassigned) [Compound 126]', 'AX', 'ND (^ <4%)');

Dear colleague, please send me the reported AX for CCc1scc2c1CC(NC)CC2 (single isomer, unassigned) [Compound 115, hydrochloride] when you can.
ND (^ <4%)

Dear colleague, please send me the reported AX for CNC1CCc2c(csc2Cl)C1 (single isomer, unassigned) [Compound 58, hydrochloride] when you can.
ND (^ <4%)

Dear colleague, please send me the reported AX for CNC1(C)CCc2cscc2C1 (single isomer, unassigned; enantiomer 1) [Compound 101] when you can.
ND (^ <4%)

---

- Test system: mice
- procedure-text: Neuropharmacological Assay (SmartCube): automated behavioral signature of compound-treated mice compared with a database of reference drug classes
- Type: in vivo
- condition: SmartCube class probability, 3.0 mg/kg i.p., 15 min before test, hydrochloride, 3 mg/kg
Counter-ions that a name gives are not always drawn.
assay-readout: AP

Worked set:
INSERT INTO results (molecule, target_desc, assay_readout, result) VALUES
  ('CNC1CCc2c(Cl)csc2C1 (single isomer, unassigned) [Compound 199, hydrochloride]', 'mice', 'AP', 'ND (^ <4%)'),
  ('CNC1CCc2c(F)sc(C)c2C1 (single isomer, unassigned) [Compound 211, hydrochloride]', 'mice', 'AP', '++++ (≥74%)'),
  ('CNC1CCc2scc(C3CC3)c2C1 (single isomer, unassigned) [Compound 249, hydrochloride]', 'mice', 'AP', 'ND (^ <4%)'),
  ('CNC1CCc2scc(C(F)(F)F)c2C1.Cl (single isomer, unassigned) [Compound 194]', 'mice', 'AP', '++++ (≥74%)'),
  ('CCc1csc2c1CC(NC)CC2 (single isomer, unassigned) [Compound 251, hydrochloride]', 'mice', 'AP', 'ND (^ <4%)');

Dear colleague, please send me the reported AP for CNC1(C)CCc2cc(C(F)(F)F)sc2C1.Cl (single isomer, unassigned) [Compound 245] when you can.
ND (^ <4%)

Dear colleague, please send me the reported AP for CNC1CCc2scc(C3CC3)c2C1 (single isomer, unassigned) [Compound 250, hydrochloride] when you can.
+ (≥4%)

Dear colleague, please send me the reported AP for NC1CCc2cscc2C1 (single isomer, unassigned) [Compound 166, hydrochloride] when you can.
++ (≥24%)

Dear colleague, please send me the reported AP for NC1CCc2scc(F)c2C1 (single isomer, unassigned) [Compound 191, hydrochloride] when you can.
+ (≥4%)

Dear colleague, please send me the reported AP for CNC1CCc2c(F)sc(C)c2C1 (single isomer, unassigned) [Compound 210, hydrochloride] when you can.
+ (≥4%)

Dear colleague, please send me the reported AP for CNC1CCc2c(Cl)csc2C1 (single isomer, unassigned) [Compound 198, hydrochloride] when you can.
++++ (≥74%)

Dear colleague, please send me the reported AP for CNC1(C)CCc2cc(C(F)(F)F)sc2C1.Cl (single isomer, unassigned) [Compound 246] when you can.
++ (≥24%)

Dear colleague, please send me the reported AP for CNC1CCc2scc(C(F)(F)F)c2C1.Cl (single isomer, unassigned) [Compound 195] when you can.
ND (^ <4%)

Dear colleague, please send me the reported AP for CNC1CCc2c(sc(Cl)c2C)C1 (single isomer, unassigned) [Compound 147, hydrochloride] when you can.
ND (^ <4%)

Dear colleague, please send me the reported AP for CNC1CCc2sc(C)cc2C1 (single isomer, unassigned) [Compound 224, hydrochloride] when you can.
++++ (≥74%)

Dear colleague, please send me the reported AP for CCNC1CCc2cscc2C1 (single isomer, unassigned) [Compound 171, hydrochloride] when you can.
++++ (≥74%)

Dear colleague, please send me the reported AP for CNC1CCc2c(sc(Cl)c2C)C1 (single isomer, unassigned) [Compound 148, hydrochloride] when you can.
+ (≥4%)

Dear colleague, please send me the reported AP for CCNC1CCc2cscc2C1 (single isomer, unassigned) [Compound 172, hydrochloride] when you can.
ND (^ <4%)

Dear colleague, please send me the reported AP for CNC1CCCc2cscc2C1 (single isomer, unassigned) [Compound 169, hydrochloride] when you can.
ND (^ <4%)

Dear colleague, please send me the reported AP for CNC1CCc2sc(C)cc2C1 (single isomer, unassigned) [Compound 223, hydrochloride] when you can.
ND (^ <4%)

Dear colleague, please send me the reported AP for NC1CCc2cscc2C1 (single isomer, unassigned) [Compound 167, hydrochloride] when you can.
ND (^ <4%)

Dear colleague, please send me the reported AP for CCc1csc2c1CC(NC)CC2 (single isomer, unassigned) [Compound 252, hydrochloride] when you can.
+ (≥4%)

Dear colleague, please send me the reported AP for NC1CCc2scc(F)c2C1 (single isomer, unassigned) [Compound 192, hydrochloride] when you can.
ND (^ <4%)

---

- Tested on: mice
- procedure-text: Neuropharmacological Assay (SmartCube): automated behavioral signature of compound-treated mice compared with a database of reference drug classes
- Format: in vivo
- condition: probability that activity matches this class of agents, 3.0 mg/kg i.p., 15 min before test
Structures can show the parent of a compound that is named as a salt.
assay-readout: MS

Worked set:
INSERT INTO measurements (compound, result) VALUES
  ('CCc1sc(CC)c2c1CCC(NC)C2 (single isomer, unassigned) [Compound 118, hydrochloride]', 'ND (^ <4%)'),
  ('CNC1COc2csc(Cl)c2C1 (centres unmarked) [Compound 87, hydrochloride]', 'ND (^ <4%)'),
  ('CNC1CCc2c(F)sc(C)c2C1 (centres unmarked) [Compound 100, hydrochloride]', 'ND (^ <4%)'),
  ('Cl.c1cc2c(s1)CC(N1CCOCC1)CC2 (single isomer, unassigned) [Compound 22]', 'ND (^ <4%)'),
  ('Cc1csc2c1CCC(N)C2 (single isomer, unassigned) [Compound 66, hydrochloride]', 'ND (^ <4%)'),
  ('Cl.c1cc2c(s1)CC(N1CCOCC1)CC2 (single isomer, unassigned) [Compound 23]', 'ND (^ <4%)'),
  ('Cl.c1scc2c1CCC(NC1CC1)C2 (single isomer, unassigned) [Compound 124]', 'ND (^ <4%)'),
  ('Cl.c1cc2c(s1)CC(N1CCCC1)CC2 (single isomer, unassigned) [Compound 17]', 'ND (^ <4%)');

Dear colleague, please send me the reported MS for CC1(N)CCc2ccsc2C1 (single isomer, unassigned) [Compound 112, hydrochloride] when you can.
ND (^ <4%)

Dear colleague, please send me the reported MS for CNC1CCc2csc(C(F)(F)F)c2C1 (single isomer, unassigned) [Compound 62, hydrochloride] when you can.
ND (^ <4%)

Dear colleague, please send me the reported MS for CNC1CCc2ccsc2C1.Cl (single isomer, unassigned) [Compound 9] when you can.
ND (^ <4%)

Dear colleague, please send me the reported MS for CNC1CCc2cc(C(F)(F)F)sc2C1 (single isomer, unassigned) [Compound 38] when you can.
ND (^ <4%)

Dear colleague, please send me the reported MS for CNC1COc2cscc2C1 (single isomer, unassigned) [Compound 52, hydrochloride] when you can.
ND (^ <4%)

Dear colleague, please send me the reported MS for CNC1CCc2sccc2C1.Cl (single isomer, unassigned) [Compound 12] when you can.
ND (^ <4%)

Dear colleague, please send me the reported MS for CNC1CCc2scc(C)c2C1.Cl (single isomer, unassigned) [Compound 69] when you can.
ND (^ <4%)

Dear colleague, please send me the reported MS for CNC1CCc2c(C)sc(C(F)(F)F)c2C1 (single isomer, unassigned; enantiomer 2) [Compound 105] when you can.
ND (^ <4%)

Dear colleague, please send me the reported MS for CNC1CCc2csc(F)c2C1 (single isomer, unassigned) [Compound 74, hydrochloride] when you can.
ND (^ <4%)

---

- Tested on: mice
- procedure-text: Neuropharmacological Assay (SmartCube): automated behavioral signature of compound-treated mice compared with a database of reference drug classes
- Assay type: in vivo
- condition: SmartCube class probability, 3.0 mg/kg i.p., 15 min before test
Where a name gives a salt, the structure may show the parent alone.
assay-readout: MS

Worked set:
INSERT INTO assay_data (compound, result) VALUES
  ('CNC1CCc2c(C(F)(F)F)csc2C1 (stereo not drawn) [Compound 180, hydrochloride]', 'ND (^ <4%)'),
  ('CNC1CCc2c(Cl)csc2C1 (single isomer, unassigned) [Compound 198, hydrochloride]', 'ND (^ <4%)'),
  ('CNC1CCc2scc(C3CC3)c2C1 (single isomer, unassigned) [Compound 249, hydrochloride]', 'ND (^ <4%)'),
  ('CNC1(C)COc2ccsc2C1 (stereo not drawn) [Compound 266, formate salt]', 'ND (^ <4%)'),
  ('CCNC1CCc2cscc2C1 (single isomer, unassigned) [Compound 171, hydrochloride]', 'ND (^ <4%)'),
  ('NC1CCc2csc(C3CC3)c2C1 (stereo not drawn) [Compound 193, hydrochloride]', 'ND (^ <4%)'),
  ('CNC1CCc2scc(CN)c2C1 (single isomer, unassigned) [Compound 236, dihydrochloride]', 'ND (^ <4%)'),
  ('CNC1CCc2scc(CN)c2C1 (single isomer, unassigned) [Compound 237, dihydrochloride]', 'ND (^ <4%)'),
  ('CNC1COc2csc(C(F)(F)F)c2C1 (stereo not drawn) [Compound 153, hydrochloride]', 'ND (^ <4%)'),
  ('CNC1CCc2c(F)sc(C)c2C1 (single isomer, unassigned) [Compound 210, hydrochloride]', 'ND (^ <4%)');

Read the next record carefully.
Dear colleague, please send me the reported MS for CNC1CCc2scc(C(F)(F)F)c2C1 (stereo not drawn) [Compound 140, hydrochloride] when you can.
ND (^ <4%)
